Where these numbers come from: PubChem BioAssay (NCI)

test system: MOLT-4 leukemia; assay: NCI-60 one-dose screen, 48 h; conditions: 10 µM unless noted
Compounds without any hit were thinned out: in the full panel of roughly 83,000, 20% have a hit. Activity calls are given as the source filed them. How the source made its calls: active means growth percent below 10; inactive means the rest.
Classes used: label 1 (active), label 0 (inactive)

compound: CC1(C)CCCN1CCCN1c2ccccc2Sc2ccc(Cl)cc21
label: label 0
//
compound: c1ccc(-c2nn(-c3ccccc3)[n+](-c3cccc4ccccc34)n2)cc1
label: label 0
//
compound: NC(=O)C1(N2CCCCC2)CCN(CCCC(=O)c2ccc(F)cc2)CC1
label: label 0
//
compound: COc1ccc(C(=O)c2cc3c(N)c(C(=O)Nc4cccc(OC)c4)sc3nc2C)cc1
label: label 0
//
compound: Cc1ccc(C2C3CC4CCCCC4N3[C@@]3(C(=O)Nc4cc(Cl)ccc43)C2C(=O)c2nc3ccccc3[nH]2)cc1 (stereo partly drawn)
label: label 1
//
compound: COc1cc2oc(-c3cccc(C(=O)Nc4ccc(Cl)cc4)c3)cc(=O)c2c(OC)c1OC
label: label 0
//
compound: COc1ccc(-c2nc(SC)nc(N3CCOCC3)c2C#N)cc1
label: label 0
//
compound: Nc1c(C(=O)Nc2cccc3ccncc23)sc2nc3c(cc12)C(=O)CCC3
label: label 0
//
compound: COc1c(Cl)cc(Cl)c2ccc(C=C3C(=O)N(C)C(=O)N(C)C3=O)nc12
label: label 0
//
compound: O=C1Nc2c(ccc(Cl)c2Cl)/C1=C/c1ccc(O)cc1
label: label 0
//
compound: COc1ccc(NS(=O)(=O)c2ccc(C)cc2)c([N+](=O)[O-])c1
label: label 0
//
compound: COc1cccc2cc(-c3cc4ccccc4[nH]3)/c(=N/C(=S)Nc3ccc(C)cc3)oc12
label: label 0
//
compound: O=C(O)CCCCCCCCCCCCCCC(=O)O
label: label 0
//
compound: O=C1NC(=S)NC(=O)C1=Cc1cccc(C=C2C(=O)NC(=S)NC2=O)c1
label: label 0
//
compound: [2H]C1([2H])NC([2H])([2H])C([2H])([2H])N(c2ccc(Nc3ncc4cc(C(=O)N(C)C)n(C5CCCC5)c4n3)nc2)C1([2H])[2H]
label: label 1
//
compound: CN1CCN(CC#CCNC(=O)[C@]23CCC(C)(C)C[C@H]2C2=CC[C@@H]4[C@@]5(C)Cc6c([nH]c7ccccc67)C(C)(C)[C@@H]5CC[C@@]4(C)[C@]2(C)CC3)CC1
label: label 0
//
compound: C1=C2CNCC3=Cc4ccc5ccccc5c4OC23Oc2c1ccc1ccccc21
label: label 0
//
compound: CCCCCCCC(=O)Nc1nc2[nH]c(CN3CCN(Cc4cccc(I)c4)CC3)c(CN3CCN(Cc4cccc(I)c4)CC3)c2c(=O)[nH]1
label: label 1
//
compound: COc1cc2nc(-c3ccc(-c4nn[nH]n4)cc3)[nH]c(=O)c2cc1OC
label: label 0
//
compound: CC(=O)CCSc1ccc(OC(C)=O)cc1
label: label 0
//
compound: CCN1C(=O)N(CC)C2NC(SC)=NC21 (stereo not drawn)
label: label 0
//
compound: Nc1c(C(=O)Nc2ccc(Cl)cc2)cc(-c2nc3ccccc3s2)c(=O)n1NS(=O)(=O)c1ccc(Cl)cc1
label: label 0
//
compound: CN(C)c1ccc(-c2c(C#N)c(N)n3nc(N)c(C#N)c3c2C#N)cc1
label: label 0
//
compound: Clc1ccc(N2N=C(c3cccc(Nc4ccncc4)c3)CC2c2ccccc2)cc1 (stereo not drawn)
label: label 0
//
compound: O=c1[nH]nc(-c2ccc(Br)cc2)cc1Cc1ccc(O)cc1
label: label 0
//
compound: Fc1ccc(-n2cc(COc3ncnc4sc5c(c34)CCCC5)nn2)cc1Cl
label: label 0
//
compound: COc1ccc(C(O)c2cc3c(N)c(C(=O)Nc4cccc(OC)c4)sc3nc2C)cc1 (stereo not drawn)
label: label 0
//
compound: CCc1c(Nc2ccc(C)cc2)[nH]c(N)nc1=S
label: label 0
//
compound: Cc1ccc(C2CC(c3cccc(Nc4ccncc4)c3)=NN2c2ccccc2)cc1 (stereo not drawn)
label: label 1
//
compound: CC1(C)[C@H](O)CC[C@]2(C)[C@@H]1CC[C@@]13C[C@@H](CC[C@H]12)[C@@](O)(CO)C3
label: label 0
//
compound: c1ccc(-c2nnc(Nc3ccc4c(c3)OCCO4)o2)c(NCc2ccncc2)c1
label: label 0
//
compound: CN1CCN(C(=O)[C@]2(C)CC[C@]3(C)CC[C@]4(C)C(=CC(=O)[C@@H]5[C@@]6(C)CCC(=O)NC(C)(C)[C@@H]6CC[C@]54C)[C@@H]3C2)CC1
label: label 0
//
compound: COc1ccc(-c2nc(N/N=C/c3cccc(O)c3)nc(N3CCOCC3)c2C#N)cc1
label: label 0
